- System: NCI/ADR-RES ovarian
- ASSAY_TEXT: NCI tumour cell line growth inhibition, 48 h
Classify by measured TGI: criterion met if it is equal to or exceeds 40 µM, criterion not met if it is smaller.

Query :: Has COC(=O)C1=CN(CC2=CC(=O)C(C)=CC2=O)C=C(C(=O)OC)C1c1cccc(OC)c1 a recorded TGI greater than or equal to 40 µM?
Result :: criterion met

Query :: Determine whether this compound has TGI no lower than 40 µM: O=c1c2ncn(C3CCCO3)c2n(-c2ccccc2)c(=S)n1-c1ccccc1 (stereo not given)
Result :: criterion met

Query :: Reported TGI reaches at least 40 µM for COC(C)(C)OCCN1CCN(CCN2C3=C(C=C(C(C)=O)C3)Sc3ccccc32)CC1 ?
Result :: criterion met

Query :: Item Oc1ccc2ccccc2c1N=Nc1ccc(Br)cc1 with TGI of 40 µM or above?
Result :: criterion met

Query :: Could you please find out whether COc1ccc2c(c1)c[n+](C)c1c3cc(OC)c(OC)cc3ccc21 has TGI that meets 40 µM or exceeds it?
Result :: criterion met

Query :: Reported TGI at or above 40 µM? C#Cc1nc(Nc2cc(C)[nH]n2)c2ccccc2n1
Result :: criterion met

Query :: Exam item: decide whether the reported TGI for O=[P@@]1(c2ccccc2)O[C@H](COCc2ccccc2)[C@@H](OCc2ccccc2)[C@H](OCc2ccccc2)[C@H]1NCc1ccccc1 is at least 40 µM.
Result :: criterion met

Query :: Is TGI for CC1(Br)Cc2ccccc2C1=O (stereo not given) at or above 40 µM?
Result :: criterion met

Query :: Test whether the compound O=C1c2ccccc2C(=O)c2c1nc1ccccc1c2-c1cncc(-c2c3c(nc4ccccc24)C(=O)c2ccccc2C3=O)c1 records TGI of 40 µM or higher.
Result :: criterion met

Query :: Item CNCCCn1c2ccccc2c2c3c(c(-c4ccsc4)cc21)C(=O)NC3=O with TGI of 40 µM or above?
Result :: criterion not met

Query :: Please check the record CCOC(=O)[C@H](C)OC(=O)[C@@](C)(NC(=O)c1ccccc1C(=O)OC)[C@@H]1NC=C(C(=O)OC)CS1 and state if its TGI is at or above 40 µM.
Result :: criterion met

Query :: Hi, just wondering whether COc1ccc(-c2nnc(N3CCN(C(=O)CN4CCN(c5ccccc5)CC4)CC3)nc2-c2ccc(OC)cc2)cc1 shows TGI of 40 µM or higher.
Result :: criterion met

Query :: Check if TGI >= 40 µM (inclusive). Item: CC1CN=C(N(C(=O)Nc2ccccc2)c2ccc(Cl)c(Cl)c2)S1 (stereo not given)
Result :: criterion met

Query :: For this compound, is measured TGI 40 µM or higher? C/C(=N\NC(=S)N1CCCCCC1)c1ccccn1
Result :: criterion not met

Query :: Does Nc1ccn([C@H]2CO[C@@H](CO)[C@@H]2O)c(=O)n1 have a reported TGI of at least 40 µM?
Result :: criterion met

Query :: Does TGI meet or surpass 40 µM for O=C(O)CCSC(CC1(c2ccc(Cl)cc2)NC(=O)CCS1)c1ccccc1 (stereo not given) ?
Result :: criterion met
